# credit: patent US10000471B2

- Tested on: TNFα release in d-U937 cells
- method description: LPS-induced TNFα release in d-U937 cells
- Assay type: cell-based, human
- experimental conditions: Homo sapiens, dU937, relative to 10 μg/mL BIRB796, read-out: LPS/TNFα REC50 d-U937
measurement name: EC50 (nM)

In the examples that follow, each entry is paired with its recorded EC50.
{"columns": ["entry smiles", "measured target", "measurement name", "experimental value"],
 "data": [
  ["Cc1ccc(-n2nc(C3(C)CCCCC3)cc2NC(=O)Nc2ccc(Oc3ccnc(NC(=O)N4CCCC4)c3)c(Cl)c2Cl)cc1", "TNFα release in d-U937 cells", "EC50", 0.5],
  ["CNC(=O)Nc1cc(Oc2ccc(NC(=O)Nc3cc(C(C)(C)C)nn3-c3ccc(CO)cc3)c(Cl)c2Cl)ncn1", "TNFα release in d-U937 cells", "EC50", 1],
  ["COc1ccc(-n2nc(C(C)(C)C)cc2NC(=O)Nc2ccc(Oc3ccnc(NC(=O)NCCN(C)C)c3)c(Cl)c2Cl)cc1", "TNFα release in d-U937 cells", "EC50", 2.1],
  ["COCC(=O)Nc1cc(Oc2ccc(NC(=O)Nc3cc(C(C)(C)C)nn3-c3ccc(OC)cc3)c(Cl)c2Cl)ccn1", "TNFα release in d-U937 cells", "EC50", 2.2]
]}

1 = CC(C)(C)c1cc(NC(=O)Nc2ccc(Oc3ccnc(NC(=O)NC4CC4)c3)c(Cl)c2Cl)n(-c2ccc(CO)cc2)n1
2 = COCC(=O)Nc1cc(Oc2ccc(NC(=O)Nc3cc(C(C)(C)C)nn3-c3ccc(C)cc3)c3ncccc23)ccn1
3 = CNC(=O)Nc1cc(Oc2ccc(NC(=O)Nc3cc(C(C)(C)C)nn3-c3ccc(OC)cc3)c(Cl)c2Cl)ccn1
**Q:** Descending sort on EC50 required. A complete answer lists every label in the requested sequence.
**A:** 2, 1, 3

I = COc1ccc(-n2nc(C(C)(C)C)cc2NC(=O)Nc2ccc(Oc3ccnc(NC(=O)NCCN4CCOCC4)c3)c(Cl)c2Cl)cc1
II = COCC(=O)Nc1cc(COc2ccc(NC(=O)Nc3cc(C(C)(C)C)nn3-c3ccc(C)cc3)c(Cl)c2Cl)ccn1
**Q:** Please choose the item with the lower EC50 value from this pair: I and II Return value: the label identifying the chosen record.
**A:** I
(I: 0.2 nM, II: 40.8 nM)

1 = COCC(=O)Nc1cc(Oc2ccc(NC(=O)Nc3cc(C(C)(C)C)nn3-c3ccc(C)cc3)c(Cl)c2Cl)ccn1
2 = COCC(=O)Nc1cc(Oc2ccc(NC(=O)Nc3cc(C(C)(C)C)nn3-c3ccc(C)cc3)c(S(C)(=O)=O)c2)ccn1
**Q:** // compare measured EC50, left 1 , right 2 , return larger Mark your answer with the label of the selected entry.
**A:** 2
(2: 29.4 nM, 1: 0.7 nM)

a = COc1cc(-n2nc(C(C)(C)C)cc2NC(=O)Nc2ccc(Oc3ccnc(NC(=O)N4CC[C@H](N(C)C)C4)c3)c(Cl)c2Cl)ccc1CO
b = CNC(=O)Nc1cc(Oc2ccc(NC(=O)Nc3cc(C(C)(C)C)nn3-c3ccc(C(=O)O)cc3)c(Cl)c2Cl)ccn1
c = COc1ccc(-n2nc(C(C)(C)C)cc2NC(=O)Nc2ccc(Oc3cc(NC(=O)NCCN(C)C)ncn3)c(Cl)c2Cl)cc1
**Q:** Task for the reader: rank each entry by its EC50, from the minimum upward. To answer, write out the labels according to the requested order.
**A:** c, a, b
(c: 0.3 nM, a: 1.4 nM, b: 9.2 nM)

----------
- Tested on: TNFα release in d-U937 cells
- method description: LPS-induced TNFα release in d-U937 cells
- Format: cell-based, human
- experimental conditions: relative to 10 μg/mL BIRB796, read-out: LPS/TNFα REC50 d-U937
measurement name: pEC50
Value format note: pEC50 is -log10 of concentration (mol/L); just state the number.

**Q:** Supply pEC50 value. Item: COc1ccc(-n2nc(C(C)(C)C)cc2NC(=O)Nc2ccc(Oc3ccnc(NC(=O)N4CC[C@@H](N(C)C)C4)c3)c(Cl)c2Cl)cc1 [Example 81]
**A:** 9.10

----------
- measured target: p38 MAPKα isoform (MAPK14) (Homo sapiens, UniProt Q16539)
- Sequence (Q16539 whole entry, canonical isoform): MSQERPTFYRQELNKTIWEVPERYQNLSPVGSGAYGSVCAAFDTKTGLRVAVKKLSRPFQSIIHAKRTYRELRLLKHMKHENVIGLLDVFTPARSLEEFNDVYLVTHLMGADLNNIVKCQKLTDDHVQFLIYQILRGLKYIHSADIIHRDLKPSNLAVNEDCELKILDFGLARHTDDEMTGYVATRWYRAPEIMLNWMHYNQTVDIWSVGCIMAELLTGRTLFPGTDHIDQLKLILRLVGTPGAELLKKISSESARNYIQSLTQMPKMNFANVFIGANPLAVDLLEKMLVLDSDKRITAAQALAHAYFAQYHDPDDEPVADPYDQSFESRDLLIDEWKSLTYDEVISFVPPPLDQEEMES
- method description: Enzyme inhibition assay (FRET, Z-LYTE), p38 MAPKα via MAPKAP-K2 activation
- experimental conditions: read-out: Enzyme Inhibition IC50 p38α
measurement name: IC50 (nM)

Sample answers from the record:
{"columns": ["entry smiles", "IC50, nM"],
 "data": [
  ["COCC(=O)Nc1nccc(Oc2ccc(NC(=O)Nc3cc(C(C)(C)C)nn3-c3ccc(CO)cc3)c(Cl)c2Cl)n1", 17],
  ["CNC(=O)Nc1cc(Oc2ccc(NC(=O)Nc3cc(C(C)(C)C)nn3-c3ccc(C)cc3)c(Cl)c2Cl)ncn1", 29.9],
  ["CC(C)(C)c1cc(NC(=O)Nc2ccc(Oc3ccnc(NC(=O)NCCN4CCOCC4)c3)c(Cl)c2Cl)n(-c2ccc(CO)cc2)n1", 19.4]
]}

1 = COc1ccc(-n2nc(C(C)(C)C)cc2NC(=O)Nc2ccc(Oc3ccnc(NC(=O)N4CCCC4)c3)c(Cl)c2Cl)cc1
2 = Cc1ccc(-n2nc(C3(C)CCCCC3)cc2NC(=O)Nc2ccc(Oc3ccnc(NC(=O)N4CCCC4)c3)c(Cl)c2Cl)cc1
3 = CNC(=O)Nc1cc(Oc2ccc(NC(=O)Nc3cc(C4(C)CCCCC4)nn3-c3ccc(C)cc3)c(Cl)c2Cl)ccn1
4 = COCC(=O)Nc1cc(Oc2c(NC(=O)Nc3cc(C(C)(C)C)nn3-c3ccc(C)cc3)ccc(F)c2F)ccn1
**Q:** Output the entries ranked by IC50 from maximum down to minimum. Sort the labels as requested; that list is your answer.
**A:** 4, 2, 3, 1
(4: 2090 nM, 2: 328 nM, 3: 151 nM, 1: 21 nM)

----------
As shown below, each of these molecules has a reported MTT Assay (Viability) 4 h d-U937, percentage loss of cell viability value.
- Tested on: Differentiated U937 cells
- method description: Cell viability MTT assay
- Assay type: cell-based, human
- experimental conditions: 4 hr in 5% FCS; negative = apparent increase in viability
Write the value in % as a bare number.

{"columns": ["entry smiles", "measure unit", "experimental value"],
 "data": [
  ["COCC(=O)Nc1cc(Oc2ccc(NC(=O)Nc3cc(C(C)(C)C)nn3-c3ccc(C)cc3)c(F)c2F)ccn1", "%", 2.4],
  ["COCC(=O)Nc1cc(Oc2ccc(NC(=O)Nc3cc(C(C)(C)C)nn3-c3ccc(O)cc3)c(Cl)c2Cl)ccn1", "%", "−24.0"],
  ["COCC(=O)Nc1cc(Oc2cc(Cl)c(NC(=O)Nc3cc(C(C)(C)C)nn3-c3ccc(C)cc3)cc2Cl)ccn1", "%", 6.5]
]}

Next molecule, MTT Assay (Viability) 4 h d-U937, percentage loss of cell viability to be filled in.
**Q:** Read the entry `COCC(=O)Nc1cc(COc2ccc(NC(=O)Nc3cc(C(C)(C)C)nn3-c3ccc(C)cc3)c3cccnc23)ccn1` and write its reported MTT Assay (Viability) 4 h d-U937, percentage loss of cell viability.
**A:** −8.1

----------
- System: TNFα release in d-U937 cells
- method description: LPS-induced TNFα release in d-U937 cells
- Type: cell-based, human
- experimental conditions: Homo sapiens, dU937, relative to 10 μg/mL BIRB796, read-out: LPS/TNFα REC50 d-U937
- Procedure: LPS-Induced TNFα/IL-8 Release in d-U937 Cells U937 cells, a human monocytic cell line, were differentiated to macrophage-type cells by incubation with phorbol myristate acetate (PMA; 100 ng/ml) for 48 to 72 hr. […] The relative 50% effective concentration (REC50) was determined from the resultant concentration-response curve. The inhibition of IL-8 production was calculated at each concentration of test compound by comparison with vehicle control. […]
measurement name: EC50 (nM)

Here's what some known entries look like.
{"columns": ["entry smiles", "EC50 / nM"],
 "data": [
  ["COCC(=O)Nc1cc(Oc2ccc(NC(=O)Nc3cc(C(C)(C)C)nn3-c3cccc(CO)c3)c(Cl)c2Cl)ncn1", 0.9],
  ["CN(C)CCNC(=O)Nc1cc(Oc2ccc(NC(=O)Nc3cc(C(C)(C)C)nn3-c3ccc(CO)cc3)c(Cl)c2Cl)ccn1", 1.5],
  ["CNC(=O)Nc1cc(Oc2ccc(NC(=O)Nc3cc(C(C)(C)C)nn3-c3ccc(OC)cc3)c3ncccc23)ccn1", 2.3],
  ["COCCNC(=O)Nc1cc(Oc2ccc(NC(=O)Nc3cc(C(C)(C)C)nn3-c3ccc(OC)cc3)c(Cl)c2Cl)ccn1", 1.7],
  ["COCC(=O)Nc1cc(Oc2ccc(NC(=O)Nc3cc(C(C)(C)C)nn3-c3ccc(C)cc3)cc2Br)ccn1", 6.4],
  ["CNC(=O)Nc1cc(Oc2ccc(NC(=O)Nc3cc(C(C)(C)C)nn3-c3ccc(CO)cc3)c(Cl)c2Cl)ccn1", 0.5],
  ["CC(C)(C)c1cc(NC(=O)Nc2ccc(Oc3ccnc(NC(=O)NCCN4CCOCC4)c3)c(Cl)c2Cl)n(-c2ccc(CO)cc2)n1", 1.1],
  ["COCC(=O)Nc1cc(Oc2ccc(NC(=O)Nc3cc(C(C)(C)C)nn3-c3ccc(C)cc3)c3cccnc23)ccn1", 0.1],
  ["COc1ccc(-n2nc(C(C)(C)C)cc2NC(=O)Nc2ccc(Oc3ccnc(NC(=O)NCCCn4ccnc4)c3)c(Cl)c2Cl)cc1", 0.6],
  ["CCNC(=O)Nc1cc(Oc2ccc(NC(=O)Nc3cc(C(C)(C)C)nn3-c3ccc(OC)cc3)c(Cl)c2Cl)ccn1", 1.7]
]}

a = COCC(=O)Nc1cc(CSc2ccc(NC(=O)Nc3cc(C(C)(C)C)nn3-c3ccc(OC)cc3)c(Cl)c2Cl)ccn1
b = CNC(=O)Nc1cc(Oc2ccc(NC(=O)Nc3cc(C(C)(C)C)nn3-c3ccc(O)cc3)c(Cl)c2Cl)ccn1
**Q:** For this pair, a and b , which shows a numerically higher EC50? Use the label to indicate which entry you chose.
**A:** a

A = COCC(=O)Nc1cc(Oc2c(NC(=O)Nc3cc(C(C)(C)C)nn3-c3ccc(C)cc3)ccc(F)c2F)ccn1
B = CNCC(=O)Nc1cc(Oc2ccc(NC(=O)Nc3cc(C(C)(C)C)nn3-c3ccc(OC)cc3)c(Cl)c2Cl)ccn1
C = COc1ccc(-n2nc(C(C)(C)C)cc2NC(=O)Nc2ccc(Oc3ccnc(NC(=O)N(C)C)c3)c(Cl)c2Cl)cc1
D = COCC(=O)Nc1cc(COc2ccc(NC(=O)Nc3cc(C(C)(C)C)nn3-c3ccc(OC)cc3)c3cccnc23)ccn1
E = COc1ccc(-n2nc(C(C)(C)C)cc2NC(=O)Nc2ccc(Oc3ccnc(NC(=O)NC4CC4)c3)c(Cl)c2Cl)cc1
**Q:** Sort entries by EC50 from minimum to maximum value. Use the labels to give the ranking in the order requested.
**A:** C, B, E, A, D
(C: 0.3 nM, B: 1.3 nM, E: 2 nM, A: 27 nM, D: 16200 nM)

a = COCC(=O)Nc1cc(Oc2ccc(NC(=O)Nc3cc(C(C)(C)C)nn3-c3ccc(OC)cc3)c(Cl)c2Cl)ncn1
b = COCC(=O)Nc1cc(Oc2ccc(NC(=O)Nc3cc(C(C)(C)C)nn3-c3ccc(C)cc3)cc2Cl)ccn1
**Q:** Which is greater in EC50, the first item a or the second item b ? // output: label of the selected item
**A:** a
(a: 1.2 nM, b: 0.8 nM)
